# Test system: HLA A2
# Assay type: binding, human
# recordedConditions: 10 μM peptide; RMA-S/A2 cells, peptide, anti-A2 Mab BB7.2 and secondary antibody; FACS mean
experimentalEndpoint: Mean 2

* YVVGFIIFL [CH44] | 341
* SILELLQFV [CH5] | 477
* ILLNEVPYV [CH2] | 636
* IALLVIFFV [CH18] | 428
* VIQAFGDFV [CH47] | 302
* RLLEIIWGV [CH28] | 390

* * *

# Test system: HLA A2
# Assay type: binding, human
# recordedConditions: 100 μM peptide; RMA-S/A2 cells, peptide, anti-A2 Mab BB7.2 and secondary antibody; FACS mean
Listed here are sequences together with their documented Mean 2.
experimentalEndpoint: Mean 2

• NLWSHYTDL (listed as Chlamydia pneumoniae) [CH53] = 350
• QLLESLAPL [CH4] = 516
• NLAGGILSV (listed as Chlamydia pneumoniae) [CH56] = 383

This collection of values is drawn from patent US7754228B2.
